Just for reference, patent US9120777B2 is where these values come from.

Would you mind telling me the reported inhibition at 1 µM of each entry?
SYSTEM_NAME: human SSTR5 (Homo sapiens, UniProt P35346)
Construct: expressed in transfected cells
Sequence (P35346 whole entry): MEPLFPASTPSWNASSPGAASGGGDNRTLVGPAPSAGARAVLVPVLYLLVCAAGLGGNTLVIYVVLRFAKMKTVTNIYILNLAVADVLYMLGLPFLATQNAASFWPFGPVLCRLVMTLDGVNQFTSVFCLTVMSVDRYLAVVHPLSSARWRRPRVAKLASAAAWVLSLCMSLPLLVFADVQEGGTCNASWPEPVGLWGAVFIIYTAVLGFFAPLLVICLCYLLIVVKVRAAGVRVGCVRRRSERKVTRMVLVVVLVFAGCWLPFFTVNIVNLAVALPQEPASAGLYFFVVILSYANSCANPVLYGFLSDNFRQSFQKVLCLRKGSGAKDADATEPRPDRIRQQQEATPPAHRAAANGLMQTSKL
ASSAY_OVERVIEW: Evaluation of human SSTR5 antagonist activity using intracellular cAMP concentration as index
Format: cell-based
CONDITION_CONTEXT: 1 uM test compound; CHO (dhfr-) cells stably expressing human SSTR5; 0.1 nM somatostatin 28 and 0.3 uM forskolin; HTRF cAMP; read-out: Inhibition rate against SSTR5 at 1 uM
Answers are plain numbers, in %.

Some compounds with known inhibition at 1 µM results, for comparison:
# COMPOUND, ENDPOINT_UNIT, inhibition at 1 µM
records = [
    ("CCc1c(C(=O)O)ccn(C2CCN(Cc3cc(C4CC4)c(-c4ccc(F)cc4)c(F)c3OC(C)C)CC2)c1=O [Example 43]", "%", 133),
    ("CCc1c(C(=O)O)ccn(C2CCN(Cc3cc(C4CC4)c(C4CC4)c(F)c3OC(C)C)CC2)c1=O [Example 47]", "%", 111),
    ("CCc1c(C(=O)O)ccn(C2CCN(Cc3cc(C4CC4)c(-c4ccc(F)cc4)cc3OC(C)C)CC2)c1=O [Example 51]", "%", 89),
]

IN: human SSTR5 (Homo sapiens, UniProt P35346) / inhibition at 1 µM / CC(C)Oc1cc(C2CC2)c(C2CC2)cc1CN1CCC(n2ccc(C(=O)O)cc2=O)CC1 [Example 4] : value?
OUT: 120
